assay: Plasma pharmacokinetics of SHR9146 in mice (LC-MS/MS, non-compartmental analysis)
Type: in vivo, ICR mice
conditionContext: male, ICR, mouse, plasma, po, 20 mg/kg, 20 mg/kg i.g. single dose; male mice
Protocol: ICR mice with body weight 16–26 g were supplied by Shanghai Lingchang Biotechnology Co., Ltd. (animal breeding license number SCXK (Shanghai) 2013-0018) and housed at Shanghai Institute of Materia Medica, Chinese Academy of Sciences [animal use license number SYXK (Shanghai) 2015-0027]. The mice used in this study were fasted overnight for 12 h but had free access to water. Food was supplied 4 h post-dose. […]
measuredAttribute: AUC(0-inf) (ng·h/mL)
# unit: ng·h/mL | format: bare number

[ask] Given `OCCn1cc(-c2ccc(N3CCC([C@H]4c5c(F)cccc5-c5cncn54)CC3)cc2)cn1` , state its recorded AUC(0-inf).
[reply] 14600
